B1: tRNA (parent)
chain: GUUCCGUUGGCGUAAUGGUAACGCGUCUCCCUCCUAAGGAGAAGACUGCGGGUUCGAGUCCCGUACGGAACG

Variants of: B1
protocol: yeast fitness relative to wild type (ratio to wild type); higher = fitter; tRNA-Arg(CCU), competitive growth, 37 C, YPD
Variants at the floor of the assay were thinned out.
# yeast fitness listing for each entry below
endpointName: yeast fitness

[[record]]
mutation = "C5G A43U C61G"
endpointname = "yeast fitness"
result = "≤ 0.5"

[[record]]
mutation = "U8C A14C G18A C31U"
endpointname = "yeast fitness"
result = "≤ 0.5"

[[record]]
mutation = "C4A C55G C61U"
endpointname = "yeast fitness"
result = "≤ 0.5"

[[record]]
mutation = "C4A G10C A57U"
endpointname = "yeast fitness"
result = "≤ 0.5"

[[record]]
mutation = "A20G U47C G50C"
endpointname = "yeast fitness"
result = "≤ 0.5"

[[record]]
mutation = "G63A C66G A69G"
endpointname = "yeast fitness"
result = "≤ 0.5"

[[record]]
mutation = "C4A U13G C24U A42G G52A"
endpointname = "yeast fitness"
result = 0.601

[[record]]
mutation = "C11A U19G A36G U54C U64C G67A"
endpointname = "yeast fitness"
result = "≤ 0.5"

[[record]]
mutation = "C11U C46G G51A C55U G63U"
endpointname = "yeast fitness"
result = "≤ 0.5"

[[record]]
mutation = "U3C C5G G51C"
endpointname = "yeast fitness"
result = "≤ 0.5"

[[record]]
mutation = "C29G G50C A65U"
endpointname = "yeast fitness"
result = "≤ 0.5"

[[record]]
mutation = "A14U U19C C29U C30A A45C"
endpointname = "yeast fitness"
result = "≤ 0.5"

[[record]]
mutation = "G10A G68C"
endpointname = "yeast fitness"
result = 0.768

[[record]]
mutation = "C5U U26G"
endpointname = "yeast fitness"
result = 0.969

[[record]]
mutation = "U2A C34G U64C"
endpointname = "yeast fitness"
result = "≤ 0.5"

[[record]]
mutation = "C11G G41C"
endpointname = "yeast fitness"
result = 0.662

[[record]]
mutation = "C4U A14G"
endpointname = "yeast fitness"
result = 0.856

[[record]]
mutation = "C29G C33G G41C G67C"
endpointname = "yeast fitness"
result = "≤ 0.5"

[[record]]
mutation = "G18A G25A C29G C34A"
endpointname = "yeast fitness"
result = "≤ 0.5"

[[record]]
mutation = "G12A A14C C34G"
endpointname = "yeast fitness"
result = "≤ 0.5"

[[record]]
mutation = "C5G A15U C29G"
endpointname = "yeast fitness"
result = "≤ 0.5"

[[record]]
mutation = "C27U A43U"
endpointname = "yeast fitness"
result = 1.06

[[record]]
mutation = "C4A U8C G51C"
endpointname = "yeast fitness"
result = "≤ 0.5"

[[record]]
mutation = "A15G G56A C62U A70C"
endpointname = "yeast fitness"
result = 0.543

[[record]]
mutation = "A14C U19A"
endpointname = "yeast fitness"
result = 0.602

[[record]]
mutation = "G10C C31G A70U"
endpointname = "yeast fitness"
result = 0.569

[[record]]
mutation = "G12A C27U C30G G68U"
endpointname = "yeast fitness"
result = "≤ 0.5"

[[record]]
mutation = "A21C C30G A69C"
endpointname = "yeast fitness"
result = 0.542

